Experiment: Cmax in Wistar rat at 24.8 mg/kg, po by LC-MS-MS analysis
Type: ADME, organism-based
Set-up: dose 24.8 mg/kg, route oral
Conditions: in vivo
MEASUREMENT_LABEL: Cmax (nM)
Give bare numbers, in nM.

[Q] Could you tell me which Cmax is on file for C#C[C@@]1(O)[C@H](O)[C@@H](CO)O[C@H]1n1cc(C(N)=O)c2c(N)ncnc21 ?
[A] 270

---

System: dengue virus type 2
Experiment: Antiviral activity against Dengue virus 2 MY10340 infected in human A549 cells by CFI assay
Assay type: functional, organism-based
MEASUREMENT_LABEL: EC50 (nM)
Give bare numbers, in nM.

- SMILES_ENTRY: "C#C[C@@]1(O)[C@H](O)[C@@H](CO)O[C@H]1n1ccc2c(N)ncnc21"
  EC50 (nM): 1120
- SMILES_ENTRY: "C#C[C@@]1(O)[C@H](O)[C@@H](CO)O[C@H]1n1cc(C(N)=O)c2c(N)ncnc21"
  EC50 (nM): 1620

Now take the following compound into account.
[Q] Could you tell me which EC50 is on file for C#C[C@@]1(O)[C@H](OC(=O)C(C)C)[C@@H](COC(=O)C(C)C)O[C@H]1n1cc(C(N)=O)c2c(N)ncnc21 ?
[A] 570

---

Test system: Rattus norvegicus
Test: AUC (0 to infinity) in Wistar rat assessed as NITD449 level at 84.1 mg/kg, po by LC-MS-MS analysis
Type: ADME, organism-based, Plasma
Design: time infinity, dose 84.1 mg/kg, route oral
Conditions: in vivo
MEASUREMENT_LABEL: AUC (µM·h)
Give bare numbers, in µM·h.

[Q] Could you tell me which AUC is on file for C#C[C@@]1(O)[C@H](OC(=O)C(C)C)[C@@H](COC(=O)C(C)C)O[C@H]1n1cc(C(N)=O)c2c(N)ncnc21 ?
[A] 33.5

---

System: dengue virus type 2
Assay: Antiviral activity against Dengue virus 2 NGC infected in human PBMC cells by plaque assay
Assay type: functional, organism-based
MEASUREMENT_LABEL: pEC50
One number for each entry, as −log10 of the molar value.

- SMILES_ENTRY: "C#C[C@@]1(O)[C@H](O)[C@@H](CO)O[C@H]1n1ccc2c(N)ncnc21"
  pEC50: 6.24

I have 2 molecules here; please give me pEC50 for each one.
1. C#C[C@@]1(O)[C@H](O)[C@@H](CO)O[C@H]1n1cc(C(N)=O)c2c(N)ncnc21
2. C#C[C@@]1(O)[C@H](OC(=O)C(C)C)[C@@H](COC(=O)C(C)C)O[C@H]1n1cc(C(N)=O)c2c(N)ncnc21

[A]
[5.30, 7.00]

---

Assay: Oral bioavailability in CD-1 mouse at 25 mg/kg by LC-MS-MS analysis
Format: ADME, organism-based
Settings: in vivo
MEASUREMENT_LABEL: bioavailability (%)
Give bare numbers, in %.

[Q] Could you tell me which bioavailability is on file for C#C[C@@]1(O)[C@H](O)[C@@H](CO)O[C@H]1n1cc(C(N)=O)c2c(N)ncnc21 ?
[A] 1

---

Test system: Rattus norvegicus
Experiment: Cmax in Wistar rat assessed as NITD449 level at 26.5 mg/kg, po by LC-MS-MS analysis
Format: ADME, organism-based
Design: dose 26.5 mg/kg, route oral
Details: in vivo
MEASUREMENT_LABEL: Cmax (µM)
Answers are plain numbers, in µM.

[Q] Could you tell me which Cmax is on file for C#C[C@@]1(O)[C@H](OC(=O)C(C)C)[C@@H](COC(=O)C(C)C)O[C@H]1n1cc(C(N)=O)c2c(N)ncnc21 ?
[A] 3.65
